- Tested on: SK-ES-1
- Protocol Description: standardised AUC of viability dose-response curve (72 h) (fraction (0-1)); higher = less growth inhibition (more resistant)
Hi there, I'd appreciate the recorded standardised AUC for every entry that follows.
Answers are plain numbers.

Query Smiles: COc1cc(OC)c(/C=C/S(=O)(=O)Cc2ccc(OC)c(NCC(=O)O)c2)c(OC)c1
standardised AUC: 0.584

Query Smiles: Cn1cc(C2=C(c3cn(C4CCN(Cc5ccccn5)CC4)c4ccccc34)C(=O)NC2=O)c2ccccc21
standardised AUC: 0.986

Query Smiles: CCN1C(=O)N(c2c(F)c(OC)cc(OC)c2F)Cc2cnc3[nH]c(CN4CCOCC4)cc3c21
standardised AUC: 0.839

Alright, here's another molecule for you.
Query: State the measured standardised AUC (SK-ES-1) of CCc1cnn2c(NCc3ccc[n+]([O-])c3)cc(N3CCCC[C@H]3CCO)nc12
Response: 0.378

----------
Hi there, I'd appreciate the recorded relative viability for every entry that follows.
- System: MES-SA
- Protocol Description: relative viability vs DMSO control (72 h) (fraction); higher = more viable cells
- Particulars: 0.1235 µM
Numbers only.

Reference set, count: 6
Molecule: Cc1cccc(-c2nn3c(c2-c2ccnc4ccc(C(N)=O)cc24)CCC3)n1 [Galunisertib]
Assay Endpoint: relative viability
Readout Number: 0.9
--
Molecule: CC#CC(=O)N1CCC[C@H]1c1nc(-c2ccc(C(=O)Nc3ccccn3)cc2)c2c(N)nccn12 [Acalabrutinib]
Assay Endpoint: relative viability
Readout Number: 0.912
--
Molecule: N#CCNC(=O)c1ccc(-c2ccnc(Nc3ccc(N4CCOCC4)cc3)n2)cc1 [Momelotinib]
Assay Endpoint: relative viability
Readout Number: 0.84
--
Molecule: CCc1cnn2c(NCc3ccc[n+]([O-])c3)cc(N3CCCC[C@H]3CCO)nc12 [Dinaciclib]
Assay Endpoint: relative viability
Readout Number: 0.0354
--
Molecule: COc1cc(Nc2ncc(F)c(Nc3ccc4c(n3)N(COP(=O)(O)O)C(=O)C(C)(C)O4)n2)cc(OC)c1OC [Fostamatinib]
Assay Endpoint: relative viability
Readout Number: 0.853
--
Molecule: CC1(COc2ccc3c(c2)ncn3-c2ccc3cccc(N4CCC(N)CC4)c3n2)COC1 [Crenolanib]
Assay Endpoint: relative viability
Readout Number: 0.98

// for each molecule below, give its relative viability
1. CC(C)(C)c1nc(-c2cccc(NS(=O)(=O)c3c(F)cccc3F)c2F)c(-c2ccnc(N)n2)s1 [Dabrafenib]
2. Cc1cc2cc(Oc3ccnc(Nc4cccc(CS(=O)(=O)NCCN(C)C)c4)n3)ccc2[nH]1 [Sulfatinib]
3. COCCNc1cc(NC(=O)N2CCCc3cc(CN4CCN(C)CC4=O)c(C=O)nc32)ncc1C#N [Roblitinib]
4. COC(=O)[C@@]1(O)C[C@H]2O[C@]1(C)n1c3ccccc3c3c4c(c5c6ccccc6n2c5c31)C(=O)NC4 [K-252a]
5. CNC(=O)c1nnc(NC(=O)C2CC2)cc1Nc1cccc(-c2ncn(C)n2)c1OC
6. COc1cc(CCc2cc(NC(=O)c3ccc(N4CC(C)NC(C)C4)cc3)n[nH]2)cc(OC)c1 (configuration not stated) [AZD-4547]

Response:
1. 0.733
2. 0.922
3. 0.879
4. 0.596
5. 0.944
6. 0.789

----------
- System: MES-SA
- Protocol Description: relative viability vs DMSO control (72 h) (fraction); higher = more viable cells
- Particulars: 3.333 µM
Assay Endpoint: relative viability
Answers are plain numbers.

Compound: Cc1cc2cc(Oc3ccnc(Nc4cccc(CS(=O)(=O)NCCN(C)C)c4)n3)ccc2[nH]1
relative viability: 0.791

// for each compound below, give its relative viability
1. COC(=O)[C@@]1(O)C[C@H]2O[C@]1(C)n1c3ccccc3c3c4c(c5c6ccccc6n2c5c31)C(=O)NC4 [K-252a]
2. Cn1ncnc1[C@H]1c2n[nH]c(=O)c3cc(F)cc(c23)N[C@@H]1c1ccc(F)cc1

Response:
[0.0952, 0.351]

Query: Write down relative viability measured for item O=C(Nc1ccc(OC(F)(F)Cl)cc1)c1cnc(N2CC[C@@H](O)C2)c(-c2cc[nH]n2)c1
Response: 0.829

----------
- Tested on: MES-SA
- Protocol Description: relative viability vs DMSO control (72 h) (fraction); higher = more viable cells
- Particulars: 0.00017 µM
Hi there, I'd appreciate the recorded relative viability for every entry that follows.
Give bare numbers.

Reference set, count: 3
Compound: CCN(CC)CCNC(=O)c1c(C)[nH]c(/C=C2\C(=O)Nc3ccc(F)cc32)c1C [Sunitinib]
Readout Number: 0.911

Compound: CCN1C(=O)N(c2c(F)c(OC)cc(OC)c2F)Cc2cnc3[nH]c(CN4CCOCC4)cc3c21 [Pemigatinib]
Readout Number: 0.912

Compound: COc1cc(OC)c(/C=C/S(=O)(=O)Cc2ccc(OC)c(NCC(=O)O)c2)c(OC)c1 [Rigosertib]
Readout Number: 0.901

Alright, here's another compound for you.
Query: State the measured relative viability (MES-SA) of COc1cc(CCc2cc(NC(=O)c3ccc(N4CC(C)NC(C)C4)cc3)n[nH]2)cc(OC)c1 (centres undefined) [AZD-4547]
Response: 0.886

----------
- Test system: SW872
- Protocol Description: relative viability vs DMSO control (72 h) (fraction); higher = more viable cells
- Particulars: 0.00457 µM
Hi there, I'd appreciate the recorded relative viability for every entry that follows.

Molecule: C[C@]12O[C@H](C[C@]1(O)CO)n1c3ccccc3c3c4c(c5c6ccccc6n2c5c31)CNC4=O [Lestaurtinib]
Result: 1.03

Molecule: N#CC1(c2ccc(NC(=O)c3cccnc3NCc3ccncc3)cc2)CCCC1 [Apatinib]
Result: 1.05

Molecule: CC(C)(O)CNc1nc(Nc2ccnc(C(F)(F)F)c2)nc(-c2cccc(C(F)(F)F)n2)n1 [Enasidenib]
Result: 1.07

Molecule: O=C(Nc1ccc(OC(F)(F)Cl)cc1)c1cnc(N2CC[C@@H](O)C2)c(-c2cc[nH]n2)c1 [Asciminib]
Result: 0.938

Molecule: CNC(=O)c1nnc(NC(=O)C2CC2)cc1Nc1cccc(-c2ncn(C)n2)c1OC
Result: 1.03

// for each molecule below, give its relative viability
1. Cc1cc2cc(Oc3ccnc(Nc4cccc(CS(=O)(=O)NCCN(C)C)c4)n3)ccc2[nH]1 [Sulfatinib]
2. CC[C@@H]1CN(C(=O)NCC(F)(F)F)C[C@@H]1c1cnc2cnc3[nH]ccc3n12 [Upadacitinib]
3. COC(=O)[C@@]1(O)C[C@H]2O[C@]1(C)n1c3ccccc3c3c4c(c5c6ccccc6n2c5c31)C(=O)NC4 [K-252a]

Response:
1.02
1.03
1.05

----------
- System: SW684
- Protocol Description: relative viability vs DMSO control (72 h) (fraction); higher = more viable cells
- Particulars: 10 µM
Hi there, I'd appreciate the recorded relative viability for every entry that follows.
One number for each entry.

// for each molecule below, give its relative viability
1. CCN(CC)CCNC(=O)c1c(C)[nH]c(/C=C2\C(=O)Nc3ccc(F)cc32)c1C [Sunitinib]
2. Cn1cc(C2=C(c3cn(C4CCN(Cc5ccccn5)CC4)c4ccccc34)C(=O)NC2=O)c2ccccc21 [Enzastaurin]
3. C[C@]12O[C@H](C[C@]1(O)CO)n1c3ccccc3c3c4c(c5c6ccccc6n2c5c31)CNC4=O [Lestaurtinib]
4. CCc1cnn2c(NCc3ccc[n+]([O-])c3)cc(N3CCCC[C@H]3CCO)nc12 [Dinaciclib]

Response:
0.001
0.944
0.0527
0.71

----------
- Test system: G401
- Protocol Description: relative viability vs DMSO control (72 h) (fraction); higher = more viable cells
- Particulars: 0.1235 µM
Mark Yes for relative viability under 1, No if at or over.

Solved entries:
Query Smiles: CC(C)(O)CNc1nc(Nc2ccnc(C(F)(F)F)c2)nc(-c2cccc(C(F)(F)F)n2)n1
Target Or Test System: G401
Classification: No
//
Query Smiles: COC(=O)N[C@@H](C)CNc1nccc(-c2cn(C(C)C)nc2-c2cc(Cl)cc(NS(C)(=O)=O)c2F)n1
Target Or Test System: G401
Classification: No

Query: is_below(relative viability, 1) for CCN1C(=O)N(c2c(F)c(OC)cc(OC)c2F)Cc2cnc3[nH]c(CN4CCOCC4)cc3c21 ?
Response: Yes

Query: is_below(relative viability, 1) for Cc1cc2c(F)c(Oc3ncnn4cc(OC[C@@H](C)O)c(C)c34)ccc2[nH]1 ?
Response: Yes

Query: is_below(relative viability, 1) for Cn1cc(C2=C(c3cn(C4CCN(Cc5ccccn5)CC4)c4ccccc34)C(=O)NC2=O)c2ccccc21 ?
Response: No

Query: is_below(relative viability, 1) for N#CC1(c2ccc(NC(=O)c3cccnc3NCc3ccncc3)cc2)CCCC1 ?
Response: Yes

----------
- System: SYO-1
- Protocol Description: relative viability vs DMSO control (72 h) (fraction); higher = more viable cells
- Particulars: 0.00457 µM
Assay Endpoint: relative viability
Numbers only.

Reference set, count: 2
Compound: COc1cc(CCc2cc(NC(=O)c3ccc(N4CC(C)NC(C)C4)cc3)n[nH]2)cc(OC)c1 (centres undefined)
relative viability: 0.763
--
Compound: Cc1cc2cc(Oc3ccnc(Nc4cccc(CS(=O)(=O)NCCN(C)C)c4)n3)ccc2[nH]1
relative viability: 0.938

// for each compound below, give its relative viability
1. CC1(COc2ccc3c(c2)ncn3-c2ccc3cccc(N4CCC(N)CC4)c3n2)COC1
2. CNC(=O)c1nnc(NC(=O)C2CC2)cc1Nc1cccc(-c2ncn(C)n2)c1OC

Response:
[0.998, 0.937]
